assaySystem: cyclooxygenase (Homo sapiens)
Construct: against 5-LO and also cyclooxygenase in the presence of blood cells and proteins; endogenous in cells
Sequence (P23219 24-599): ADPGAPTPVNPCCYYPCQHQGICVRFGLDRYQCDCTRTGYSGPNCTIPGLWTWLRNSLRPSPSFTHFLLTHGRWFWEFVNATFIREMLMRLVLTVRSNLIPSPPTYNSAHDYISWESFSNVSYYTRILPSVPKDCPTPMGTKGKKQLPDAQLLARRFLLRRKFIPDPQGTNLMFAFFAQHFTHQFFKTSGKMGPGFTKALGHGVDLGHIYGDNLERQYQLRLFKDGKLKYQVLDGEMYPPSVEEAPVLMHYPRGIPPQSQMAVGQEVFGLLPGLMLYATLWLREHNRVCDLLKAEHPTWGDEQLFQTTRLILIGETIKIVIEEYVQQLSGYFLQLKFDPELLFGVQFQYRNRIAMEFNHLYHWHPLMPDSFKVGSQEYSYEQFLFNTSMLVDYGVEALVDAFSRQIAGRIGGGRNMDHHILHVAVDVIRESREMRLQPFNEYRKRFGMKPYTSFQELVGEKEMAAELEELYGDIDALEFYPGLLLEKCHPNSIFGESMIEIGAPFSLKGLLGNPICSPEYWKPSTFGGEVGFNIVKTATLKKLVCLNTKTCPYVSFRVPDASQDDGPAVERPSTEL
experimentDescription: Test b): in vitro heparinised human blood challenged with calcium ionophore A23187, radioimmunoassay of TxB2
conditionInfo: A23187 challenge, read-out: IC₅₀ against TxB₂
pIC50: −log10 of the molar value.
observationType: pIC50

Data point: CCC(COC)(OC)c1cccc(OCC#Cc2ccccn2)c1 (stereo not shown) ; pIC50 = < 4.40

----------
Each entry below carries its recorded pIC50.
assaySystem: 5-LO (Homo sapiens, UniProt P09917)
Construct: incubating a test compound with heparinised human blood, prior to challenge with the calcium ionophore A23187; endogenous in cells
Sequence (P09917 1-674): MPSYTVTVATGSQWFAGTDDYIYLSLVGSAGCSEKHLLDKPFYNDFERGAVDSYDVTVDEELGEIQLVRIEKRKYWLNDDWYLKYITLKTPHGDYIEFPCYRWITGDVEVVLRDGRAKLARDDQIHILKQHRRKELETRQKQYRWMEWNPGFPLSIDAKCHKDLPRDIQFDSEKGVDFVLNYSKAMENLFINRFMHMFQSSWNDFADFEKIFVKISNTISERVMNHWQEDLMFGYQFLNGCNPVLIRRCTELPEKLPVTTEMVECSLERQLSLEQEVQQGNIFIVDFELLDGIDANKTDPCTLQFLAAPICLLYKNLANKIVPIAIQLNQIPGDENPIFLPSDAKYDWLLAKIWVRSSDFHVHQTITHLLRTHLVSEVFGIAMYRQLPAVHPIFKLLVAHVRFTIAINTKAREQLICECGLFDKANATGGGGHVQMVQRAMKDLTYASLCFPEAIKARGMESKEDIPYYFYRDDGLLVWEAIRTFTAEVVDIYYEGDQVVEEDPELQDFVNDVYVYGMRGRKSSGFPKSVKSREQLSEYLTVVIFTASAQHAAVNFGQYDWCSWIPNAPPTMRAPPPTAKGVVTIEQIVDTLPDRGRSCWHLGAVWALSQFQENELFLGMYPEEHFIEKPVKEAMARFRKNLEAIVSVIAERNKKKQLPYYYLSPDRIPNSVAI
experimentDescription: Test b): in vitro heparinised human blood challenged with calcium ionophore A23187, radioimmunoassay of LTB4
conditionInfo: A23187 challenge, read-out: IC₅₀ against LTB₄
Field pIC50 (float): negative decimal logarithm of the concentration in molar.

[[record]]
compound = "C=CCOCC(CC)(OCC=C)c1cc(F)cc(OCc2ccc3c(ccc(=O)n3C)c2)c1 (centres unmarked)"
quantitativereadout = 7.00


Switching to the query record.
Given the compound CCC(COC)(OC)c1cccc(OCC#Cc2ccccn2)c1 (centres unmarked) and test system 5-LO (Homo sapiens, UniProt P09917), the measured pIC50 is 6.00

Recorded values, source patent EP0385680B1.
